Would you kindly list pIC50 for each of these molecules?
Target sequence: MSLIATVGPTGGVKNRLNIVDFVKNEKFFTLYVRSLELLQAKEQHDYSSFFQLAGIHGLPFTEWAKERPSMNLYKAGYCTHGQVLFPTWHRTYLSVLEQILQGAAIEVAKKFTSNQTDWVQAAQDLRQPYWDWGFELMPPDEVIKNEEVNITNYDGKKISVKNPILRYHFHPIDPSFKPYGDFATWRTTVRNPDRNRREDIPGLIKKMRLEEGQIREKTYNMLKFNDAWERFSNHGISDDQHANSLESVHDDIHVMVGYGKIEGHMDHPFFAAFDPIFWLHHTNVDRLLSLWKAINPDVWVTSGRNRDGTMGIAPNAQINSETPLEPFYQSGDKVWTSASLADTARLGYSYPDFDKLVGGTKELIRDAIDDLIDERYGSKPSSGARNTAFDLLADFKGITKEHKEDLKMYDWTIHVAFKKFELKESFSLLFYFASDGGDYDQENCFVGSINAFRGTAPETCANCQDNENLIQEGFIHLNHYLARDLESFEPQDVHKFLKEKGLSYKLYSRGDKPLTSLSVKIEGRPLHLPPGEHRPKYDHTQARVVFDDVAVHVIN
Field pIC50 (float): negative decimal logarithm of the concentration in molar.

// "COc1cc(-c2ccccc2C)cc(OC)c1O" : pIC50 value = 3.77

// COc1cc(-c2ccc(O[C@@H]3O[C@H](CO)[C@@H](O)[C@H](O)[C@H]3O)c(O)c2)cc(OC)c1O [FORTUNEANOSIDE E] : pIC50 value = 3.85

// "COc1cc(-c2cccc(O)c2F)cc(OC)c1O" : pIC50 value = 4.10

// "COc1cc(-c2ccc(O)c(OCc3ccccc3)c2)cc(OC)c1OC" : pIC50 value = 3.77

// "COc1cc(-c2cc(F)cc(F)c2)cc(OC)c1O" : pIC50 value = 4.10

// COc1ccc(C(C)O)cc1-c1cc(OC)c(O)c(OC)c1 (configuration not stated) : pIC50 value = 3.72

// "COc1cc(-c2ccc(C(=O)O)c(O)c2)cc(OC)c1O" : pIC50 value = 4.70

// "COc1cc(-c2ccc(C(=O)NCc3ccccc3)cc2)cc(OC)c1O" : pIC50 value = 3.92

====

- Target or test system: Tyrosinase (Agaricus bisporus, UniProt O42713)
- Test: Inhibition of mushroom tyrosinase after 30 mins
pIC50: −log10 of the molar value.
Would you kindly list pIC50 for each of these compounds?

For "COc1cc(-c2ccc(F)c(F)c2)cc(OC)c1OC" on Tyrosinase (Agaricus bisporus, UniProt O42713), measured pIC50 was < 2.70

For "COc1cc(-c2ccc(F)cc2F)cc(OC)c1OC" on Tyrosinase (Agaricus bisporus, UniProt O42713), measured pIC50 was < 2.70

For "COc1cc(-c2cccc(O)c2)cc(OC)c1OC" on Tyrosinase (Agaricus bisporus, UniProt O42713), measured pIC50 was < 2.70

For "COc1cc(-c2ccc(C(=O)O)c(OCc3ccccc3)c2)cc(OC)c1OC" on Tyrosinase (Agaricus bisporus, UniProt O42713), measured pIC50 was < 2.70
